Provide the recorded IC50 for the entries that follow.
Biological target: human recombinant PDE10A (Homo sapiens, UniProt Q9Y233)
Sequence (Q9Y233 1-779 isoform Q9Y233-1): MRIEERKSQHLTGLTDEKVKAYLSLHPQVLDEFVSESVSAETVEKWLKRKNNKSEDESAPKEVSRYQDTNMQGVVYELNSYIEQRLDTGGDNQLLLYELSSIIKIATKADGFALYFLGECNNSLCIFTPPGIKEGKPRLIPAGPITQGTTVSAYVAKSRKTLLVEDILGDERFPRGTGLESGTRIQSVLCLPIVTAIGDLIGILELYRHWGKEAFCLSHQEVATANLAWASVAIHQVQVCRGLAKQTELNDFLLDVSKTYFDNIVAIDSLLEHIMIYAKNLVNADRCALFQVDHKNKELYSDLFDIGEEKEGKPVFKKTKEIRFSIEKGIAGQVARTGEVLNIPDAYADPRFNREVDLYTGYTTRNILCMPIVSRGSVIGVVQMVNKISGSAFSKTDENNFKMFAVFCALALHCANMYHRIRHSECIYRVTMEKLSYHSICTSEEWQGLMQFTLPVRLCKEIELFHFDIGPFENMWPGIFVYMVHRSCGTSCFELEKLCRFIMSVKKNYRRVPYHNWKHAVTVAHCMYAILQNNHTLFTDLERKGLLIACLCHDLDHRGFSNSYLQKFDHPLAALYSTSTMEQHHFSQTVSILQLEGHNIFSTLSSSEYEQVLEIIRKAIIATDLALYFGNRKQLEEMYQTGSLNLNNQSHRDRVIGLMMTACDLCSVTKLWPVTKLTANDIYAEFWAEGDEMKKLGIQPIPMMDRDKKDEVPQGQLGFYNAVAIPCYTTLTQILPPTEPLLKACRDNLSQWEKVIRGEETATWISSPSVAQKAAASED
Experiment: Inhibition of human recombinant PDE10A (Method B), [3H]-cAMP SPA
Conditions: read-out: PDE10 inhibition IC50 PDE10A human

Inquiry: Which measured IC50 value corresponds to COc1ccc2nc(Cl)c3c(C)nc(C4CCCCC4)n3c2c1 ?
Reply text: 10 to 100 nM

Inquiry: Which measured IC50 value corresponds to Cc1nc(C2CCCCC2)n2c1c(Cl)nc1ccc(OCC3CC3)cc12 ?
Reply text: ≥ 100 nM

Inquiry: Which measured IC50 value corresponds to COc1ccc2nc(C#N)c3c(C)nc(C4CCCCC4)n3c2c1 ?
Reply text: ≥ 100 nM

Inquiry: Which measured IC50 value corresponds to Cc1nc(C2CCCCC2)n2c1c(NS(C)(=O)=O)nc1ccc(OCc3ccc4ccccc4n3)cc12 ?
Reply text: ≤ 10 nM

Inquiry: Which measured IC50 value corresponds to CCCc1nc(C)c2c(Cl)nc3ccc(OCC4CC4)cc3n12 ?
Reply text: 10 to 100 nM

Inquiry: Which measured IC50 value corresponds to COc1ccc2c(c1)nc(NS(C)(=O)=O)c1c(C)nc(-c3ccccc3Cl)n12 ?
Reply text: 10 to 100 nM

Inquiry: Which measured IC50 value corresponds to CCCc1nc(C)c2c(NS(C)(=O)=O)nc3ccc(OC)cc3n12 ?
Reply text: 10 to 100 nM

Inquiry: Which measured IC50 value corresponds to CCCc1nc(C)c2c(Cl)nc3cc(OC)ccc3n12 ?
Reply text: 10 to 100 nM

Inquiry: Which measured IC50 value corresponds to COc1ccc2nc(NS(C)(=O)=O)c3c(C)nc(C4CCCCC4)n3c2c1 ?
Reply text: 10 to 100 nM

Inquiry: Which measured IC50 value corresponds to CCCc1nc(C)c2c(NS(C)(=O)=O)nc3cc(OC)ccc3n12 ?
Reply text: 10 to 100 nM

Inquiry: Which measured IC50 value corresponds to CCCc1nc(C)c2c(NS(C)(=O)=O)nc3ccc(OCC4CC4)cc3n12 ?
Reply text: ≤ 10 nM

Inquiry: Which measured IC50 value corresponds to Cc1nc(C2CCCCC2)n2c1c(NS(C)(=O)=O)nc1ccc(OCC3CC3)cc12 ?
Reply text: 10 to 100 nM

----------
Provide the recorded melting point for the entries that follow.

Inquiry: Which measured melting point value corresponds to CCCc1nc(C)c2c(NS(C)(=O)=O)nc3ccc(OC)cc3n12 [Example 9] ?
Reply text: 234 to 237 °C

Inquiry: Which measured melting point value corresponds to Cc1nc(C2CCCCC2)n2c1c(NS(C)(=O)=O)nc1ccc(OCc3ccc4ccccc4n3)cc12 [Example 13] ?
Reply text: 255 to 258 °C

Inquiry: Which measured melting point value corresponds to COc1ccc2c(c1)nc(NS(C)(=O)=O)c1c(C)nc(-c3ccccc3Cl)n12 [Example 14] ?
Reply text: 277 to 278 °C

Inquiry: Which measured melting point value corresponds to Cc1nc(C2CCCCC2)n2c1c(NS(C)(=O)=O)nc1ccc(F)cc12 [Example 6] ?
Reply text: 291 to 293 °C

Inquiry: Which measured melting point value corresponds to CCCc1nc(C)c2c(Cl)nc3cc(OC)ccc3n12 [Example B15] ?
Reply text: 154 to 159 °C

Inquiry: Which measured melting point value corresponds to CCc1nc(C)c2c(NS(C)(=O)=O)nc3ccc(F)cc3n12 [Example 3] ?
Reply text: 268 to 269 °C

Inquiry: Which measured melting point value corresponds to COc1ccc2nc(C#N)c3c(C)nc(C4CCCCC4)n3c2c1 [Example 8] ?
Reply text: 244 to 248 °C

Inquiry: Which measured melting point value corresponds to COc1ccc2nc(Cl)c3c(C)nc(C4CCCCC4)n3c2c1 [Example B11] ?
Reply text: 212 to 215 °C

Inquiry: Which measured melting point value corresponds to COc1ccc2nc(NS(C)(=O)=O)c3c(C)nc(C4CCCCC4)n3c2c1 [Example 10] ?
Reply text: 287 to 288 °C

----------
Provide the recorded IC50 for the entries that follow.

Inquiry: Form field: IC50 recorded for CCc1nc(C)c2c(Cl)nc3ccc(N4CCCCC4)cc3n12 with PDE10 from pig striatum (Sus scrofa) (enter value)
Reply text: 10 to 100 nM

Inquiry: Form field: IC50 recorded for Cc1nc(C2CCCCC2)n2c1c(NS(C)(=O)=O)nc1ccc(F)cc12 with PDE10 from pig striatum (Sus scrofa) (enter value)
Reply text: 10 to 100 nM

Inquiry: Form field: IC50 recorded for Cc1nc(-c2ccccc2Cl)n2c1c(NS(C)(=O)=O)nc1ccc(F)cc12 with PDE10 from pig striatum (Sus scrofa) (enter value)
Reply text: 10 to 100 nM

Inquiry: Form field: IC50 recorded for CCc1nc(C)c2c(NS(C)(=O)=O)nc3ccc(F)cc3n12 with PDE10 from pig striatum (Sus scrofa) (enter value)
Reply text: ≥ 100 nM

Inquiry: Form field: IC50 recorded for COc1ccc2c(c1)nc(NS(C)(=O)=O)c1c(C)nc(-c3ccccc3Cl)n12 with PDE10 from pig striatum (Sus scrofa) (enter value)
Reply text: 10 to 100 nM

----------
Provide the recorded melting point for the entries that follow.

Inquiry: Which measured melting point value corresponds to Cc1nc(C2CCCCC2)n2c1c(Cl)nc1ccc(F)cc12 ?
Reply text: 205 to 210 °C

Inquiry: Which measured melting point value corresponds to CCCc1nc(C)c2c(Cl)nc3ccc(F)cc3n12 ?
Reply text: 133 to 135 °C

Inquiry: Which measured melting point value corresponds to Cc1nc(C2CCCCC2)n2c1c(Cl)nc1ccc(Cl)cc12 ?
Reply text: 244 to 248 °C

----------
Provide the recorded melting point for the entries that follow.

Inquiry: Which measured melting point value corresponds to Cc1nc(C2CCCCC2)n2c1c(Cl)nc1ccc(OCC3CC3)cc12 [Example B13] ?
Reply text: 165 to 168 °C

Inquiry: Which measured melting point value corresponds to CCCc1nc(C)c2c(Cl)nc3ccc(OCC4CC4)cc3n12 [Example B12] ?
Reply text: 103 to 105 °C

Inquiry: Which measured melting point value corresponds to CCc1nc(C)c2c(NS(C)(=O)=O)nc3ccc(N4CCCCC4)cc3n12 [Example 7] ?
Reply text: 223 to 227 °C

Inquiry: Which measured melting point value corresponds to CCCc1nc(C)c2c(NS(C)(=O)=O)nc3cc(OC)ccc3n12 [Example 15] ?
Reply text: 222 to 226 °C

Inquiry: Which measured melting point value corresponds to Cc1nc(C2CCCCC2)n2c1c(NS(C)(=O)=O)nc1ccc(OCC3CC3)cc12 [Example 12] ?
Reply text: 259 to 261 °C

Inquiry: Which measured melting point value corresponds to CCc1nc(C)c2c(Cl)nc3ccccc3n12 [Example B3] ?
Reply text: 125 to 128 °C

Inquiry: Which measured melting point value corresponds to CCCc1nc(C)c2c(NS(C)(=O)=O)nc3ccc(OCC4CC4)cc3n12 [Example 11] ?
Reply text: 240 to 241 °C

Inquiry: Which measured melting point value corresponds to CCCc1nc(C)c2c(NS(C)(=O)=O)nc3ccc(F)cc3n12 [Example 4] ?
Reply text: 277 to 280 °C

Inquiry: Which measured melting point value corresponds to CCc1nc(C)c2c(Cl)nc3ccc(N4CCCCC4)cc3n12 [Example B2] ?
Reply text: 160 to 163 °C
